The reported numbers originate from ChEMBL document CHEMBL1138650.

Lab note: pKi readings collected with Adenosylhomocysteinase (Homo sapiens, UniProt P23526) for the following compounds.
Scale explanation: pKi corresponds to minus log10 of a concentration expressed in moles per litre.

Query Nc1ncnc2c1ncn2C1OC([C@@H]2CS2)[C@@H](O)[C@H]1O (single isomer, unassigned) on Adenosylhomocysteinase (Homo sapiens, UniProt P23526); pKi returned: 3.98

Query CSSC[C@H]1OC(n2cnc3c(N)ncnc32)[C@H](O)[C@@H]1O (stereo partly drawn) on Adenosylhomocysteinase (Homo sapiens, UniProt P23526); pKi returned: 4.72

Query Nc1ncnc2c1ncn2C1O[C@H]([C@H]2CS2)[C@@H](O)[C@H]1O (stereo partly drawn) on Adenosylhomocysteinase (Homo sapiens, UniProt P23526); pKi returned: 4.30

* * *

Target: Adenosylhomocysteinase (Homo sapiens)
Experiment: Inactivation rate constant for human placental S-adenosyl-homocysteine hydrolase
Sequence (P23526 2-432 limits assumed): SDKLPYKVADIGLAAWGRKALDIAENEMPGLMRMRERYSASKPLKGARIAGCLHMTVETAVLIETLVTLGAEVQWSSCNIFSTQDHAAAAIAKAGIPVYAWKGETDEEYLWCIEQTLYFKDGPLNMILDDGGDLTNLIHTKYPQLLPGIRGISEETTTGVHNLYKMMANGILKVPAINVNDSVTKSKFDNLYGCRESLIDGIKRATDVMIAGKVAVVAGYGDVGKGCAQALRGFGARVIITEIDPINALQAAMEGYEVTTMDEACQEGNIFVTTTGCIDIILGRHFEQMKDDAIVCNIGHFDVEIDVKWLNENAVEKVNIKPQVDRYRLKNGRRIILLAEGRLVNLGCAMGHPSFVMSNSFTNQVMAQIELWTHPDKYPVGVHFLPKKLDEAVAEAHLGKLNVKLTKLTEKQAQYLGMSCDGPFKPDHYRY
# key: entry, value: Kinact
Numbers only; they are read as min⁻¹.

Sample answers from the record:
{"columns": ["compound", "attributeMeasured", "obsValue"],
 "data": [
  ["Nc1ncnc2c1ncn2C1OC([C@@H]2CS2)[C@@H](O)[C@H]1O (single isomer, unassigned)", "Kinact", 0.1],
  ["CSSC[C@H]1OC(n2cnc3c(N)ncnc32)[C@H](O)[C@@H]1O (stereo not given in full)", "Kinact", 0.05],
  ["Nc1ncnc2c1ncn2C1O[C@@H](CSSC[C@H]2OC(n3cnc4c(N)ncnc43)[C@H](O)[C@@H]2O)[C@H](O)[C@@H]1O (stereo not given in full)", "Kinact", 0.05],
  ["Nc1ncnc2c1ncn2C1O[C@H]([C@H]2CS2)[C@@H](O)[C@H]1O (stereo not given in full)", "Kinact", 0.03]
]}

Query Nc1ncnc2c1ncn2C1O[C@H](CS)[C@@H](O)[C@H]1O (stereo not given in full) on Adenosylhomocysteinase (Homo sapiens); Kinact returned: 0.04
